- assay_system: Human immunodeficiency virus type 1 integrase (Human immunodeficiency virus 1)
- Sequence (Q7ZJM1 whole entry): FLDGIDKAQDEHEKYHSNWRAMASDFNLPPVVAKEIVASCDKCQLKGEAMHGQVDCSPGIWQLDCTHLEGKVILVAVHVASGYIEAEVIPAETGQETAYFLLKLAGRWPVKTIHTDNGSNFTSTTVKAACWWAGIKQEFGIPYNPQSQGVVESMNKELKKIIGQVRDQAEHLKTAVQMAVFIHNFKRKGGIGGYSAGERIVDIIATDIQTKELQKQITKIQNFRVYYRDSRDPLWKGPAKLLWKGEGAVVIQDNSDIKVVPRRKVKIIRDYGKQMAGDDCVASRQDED
- procedure_details: Inhibition of wild type HIV1 integrase 3' processing activity
pIC50: −log10 of the molar value.
measure_name: pIC50

Some substances with recorded pIC50:
[[record]]
substance = "H-ESMNKELKKI-NH2"
assay_value = "< 2.70"

[[record]]
substance = "H-GYSAGERIVD-NH2"
assay_value = "< 2.70"

[[record]]
substance = "H-EEHEKYHSNW-NH2"
assay_value = "< 2.70"

[[record]]
substance = "H-VPRRKAKI-NH2"
assay_value = "< 3.00"

[[record]]
substance = "H-ACWGAGIKQEF-NH2"
assay_value = "< 3.48"

[[record]]
substance = "H-TAYFLLKAAGRW-OH"
assay_value = "< 3.48"


Dear colleague, please send me the reported pIC50 for `H-WAGIKQ-NH2` when you can.
< 4.00

Dear colleague, please send me the reported pIC50 for `H-ACWWAG-NH2` when you can.
< 4.00

Dear colleague, please send me the reported pIC50 for `H-PAETGQET-NH2` when you can.
< 2.70

Dear colleague, please send me the reported pIC50 for `H-ACWWAGAKQEF-OH` when you can.
< 3.48

Dear colleague, please send me the reported pIC50 for `H-GRWPVKT-NH2` when you can.
< 2.70
